All values here come from patent US9989543B2.

Procedure Summary: Olmesartan blood concentration/AUC after 7-day versus single-day dosing
Assay type: in vivo, Korean healthy males
Condition Notes: male, human, blood, oral, 40 mg, Time 2 hrs; dosing every 24 hours for 7 days; read-out: Blood concentration (ng/mL)/Compliance-7X
Measure: concentration at 2 h (ng/mL)
Unit ng/mL implied. Number only.

Quick one: concentration at 2 h of CCCc1nc(C(C)(C)O)c(C(=O)O)n1Cc1ccc(-c2ccccc2-c2nnn[nH]2)cc1 [olmesartan] ? 1130

###

Procedure Summary: Olmesartan blood concentration/AUC after 7-day versus single-day dosing
Assay type: in vivo, Korean healthy males
Condition Notes: male, human, blood, oral, 40 mg, Time 8 hrs; dosing every 24 hours for 7 days; read-out: Blood concentration (ng/mL)/Compliance-7X
Text: […]
Measure: concentration at 8 h (ng/mL)
Unit ng/mL implied. Number only.

Quick one: concentration at 8 h of CCCc1nc(C(C)(C)O)c(C(=O)O)n1Cc1ccc(-c2ccccc2-c2nnn[nH]2)cc1 [olmesartan] ? 361
